# System: MALME-3M melanoma
# Experiment: NCI tumour cell line growth inhibition, 48 h
Endpoint Label: TGI

Study these solved cases before continuing.
Looking up `C[C@H]1CN(C2COC2)CCN1c1ccc(Nc2cc(-c3ccnc(N4CCn5c(cc6c5CC(C)(C)C6)C4=O)c3CO)cn(C)c2=O)nc1` , I found its TGI recorded as > 100 µM

Looking up C=C1C2CCC3(CCC4C5(C)CCCC4(C=[N+](CCO)C5)C3C2)C1O (stereo not given) , I found its TGI recorded as > 100 µM

Looking up `O=c1n(-c2ccccc2)c(=O)n2c(-c3ccccc3)c(-c3ccccc3)n12` , I found its TGI recorded as > 100 µM

Looking up `CC(C)N(Cc1ccc(F)cc1)c1ccc(CO)c(Cl)c1` , I found its TGI recorded as 30.3 µM

Looking up `C[C@H]1C[C@H]2[C@@H]3CCC4=CC(=O)C=C[C@]4(C)C3=CC[C@]2(C)[C@@]1(O)C(=O)CO` , I found its TGI recorded as > 100 µM

The record that follows has no TGI shown yet.
Looking up `CNC(=O)CCCNC(=O)CCCC(=O)OC` , I found its TGI recorded as > 100 µM

###

# System: NCI-H226 lung
# Experiment: NCI tumour cell line growth inhibition, 48 h
Below is a list of entries, each paired with its recorded TGI value.

Study these solved cases before continuing.
Looking up COc1ccc(COc2cc3oc(=O)c4cc(C(C)O)ccc4c3cc2OC)cc1 (centres undefined) , I found its TGI recorded as 49.8 µM

Looking up N#CNC1=NC(N)C(c2nc3ccccc3[nH]2)=C(CCCC(=O)Nc2cccc([N+](=O)[O-])c2)N1 (centres undefined) , I found its TGI recorded as > 100 µM

Looking up CC1CCC2C(CN(CC3=C(C(F)(F)F)OC4OC5(C)CCC6C(C)CCC3C46OO5)CC3=C(C(F)(F)F)OC4OC5(C)CCC6C(C)CCC3C46OO5)=C(C(F)(F)F)OC3OC4(C)CCC1C32OO4 (centres undefined) , I found its TGI recorded as 57.8 µM

---
Looking up NC(CCCCNCc1ccccc1O)C(=O)O (centres undefined) , I found its TGI recorded as > 100 µM

Looking up `CC(C)CCC[C@@H](C)[C@H]1CC[C@H]2C3=C[C@H](OS(=O)(=O)O)[C@@]4(O)C[C@@H](O)CC[C@]4(C)[C@@]3(O)CC[C@]12C` , I found its TGI recorded as > 100 µM

Looking up C=CCN(CC=C)C(=O)[C@H](CC)[C@@H]1CC[C@@H](C)[C@@H]([C@H](C)[C@@H](O)[C@@H](C)C(=O)[C@H](CC)C2O[C@]3(C=C[C@@H](O)[C@]4(CC[C@@](C)([C@H]5CC[C@](O)(CC)[C@H](C)O5)O4)O3)[C@H](C)C[C@@H]2C)O1 (some centres undefined) , I found its TGI recorded as 4.92 µM

Looking up `c1cc(CN2CCNCCNCCNCC2)cc(CN2CCNCCNCCNCC2)c1` , I found its TGI recorded as > 100 µM

Looking up CC(N)CC(=O)O (centres undefined) , I found its TGI recorded as > 5000 µM

Looking up `c1ccc(C2CCCCC2)c(OCCCCCN2CCNCC2)c1` , I found its TGI recorded as 48.5 µM

###

# Tested on: UACC-257 melanoma
# Experiment: NCI tumour cell line growth inhibition, 48 h
Endpoint Label: TGI

Study these solved cases before continuing.
Looking up C=C(CCC=C(C)C)C1CC=C(C)CC1 (centres undefined) , I found its TGI recorded as > 100 µM

Looking up `CC(=O)Nc1ccc(S(=O)(=O)NN(C)S(=O)(=O)c2ccc(C)cc2)cc1` , I found its TGI recorded as > 100 µM

---
Looking up `O=C1/C(=C/c2ccccc2O)N=C(c2ccccc2)N1c1cc(C(F)(F)F)ccc1Cl` , I found its TGI recorded as > 100 µM

Looking up Cc1ccc(S(=O)(=O)N2CC(CCN)c3ccccc32)cc1 (centres undefined) , I found its TGI recorded as 33.9 µM

Looking up `COc1cc(/C=C/C2=C(C#N)C(=O)OC2(C)C)ccc1O` , I found its TGI recorded as > 100 µM

Looking up NC(CCCCNCc1ccccc1O)C(=O)O (centres undefined) , I found its TGI recorded as > 100 µM

Looking up `Nc1c(Cl)cc(-c2nc3ccccc3s2)cc1Cl` , I found its TGI recorded as > 100 µM

###

# Test system: SK-MEL-2 melanoma
# Experiment: NCI tumour cell line growth inhibition, 48 h
Endpoint Label: TGI

Study these solved cases before continuing.
Looking up `Cc1cc(O)c2c3c(ccc2c1)C(=O)c1c(O)cccc1C3=O` , I found its TGI recorded as > 100 µM

Looking up CCOC(=O)C(CCCNC(=O)OC(C)(C)C)N(Cc1ccc(OC)cc1OC)C(=O)CC(=O)CP(=O)(OCC)OCC (stereo not drawn) , I found its TGI recorded as > 100 µM

---
Looking up `COc1ccc(S(=O)(=O)N2CCNCC2)cc1OC` , I found its TGI recorded as > 100 µM

###

# Test system: NCI-H23 lung
# Experiment: NCI tumour cell line growth inhibition, 48 h
Below is a list of entries, each paired with its recorded TGI value.

Study these solved cases before continuing.
Item CCCCCCCCCCCCC(O)C(=O)O (configuration not stated) ; assay system NCI-H23 lung; TGI reported as > 100 µM

Item COC(=O)CCC(NC(=S)N/N=C(\C)c1cnccn1)C(=O)OC (configuration not stated) ; assay system NCI-H23 lung; TGI reported as > 100 µM

Item `Cc1ccc(NC(=O)/C(C#N)=C/c2ccccc2)c(C)c1` ; assay system NCI-H23 lung; TGI reported as > 100 µM

Item `O=C1/C(=C/c2ccccc2O)N=C(c2ccccc2)N1c1cc(C(F)(F)F)ccc1Cl` ; assay system NCI-H23 lung; TGI reported as > 100 µM

---
Item Cc1cc2c(c(=O)o1)C1=S(SC(c3ccccc3)=C1)S2 (configuration not stated) ; assay system NCI-H23 lung; TGI reported as > 100 µM

Item `O=[N+]([O-])/C=C/c1cn(CCCCCCCCCCCCn2cc(/C=C/[N+](=O)[O-])c3ccccc32)c2ccccc12` ; assay system NCI-H23 lung; TGI reported as > 100 µM

Item `COc1cc(C(=O)O)c(-c2cc3c(cc2C=O)OCO3)c(OC)c1OC` ; assay system NCI-H23 lung; TGI reported as > 10 µM

Item `N#Cc1cccc(Nc2ncc(-c3ccccc3)o2)c1` ; assay system NCI-H23 lung; TGI reported as > 25 µM

Item `COc1cc(-c2ncn(/C=C\c3nnco3)n2)cc(C(F)(F)F)c1` ; assay system NCI-H23 lung; TGI reported as > 64.8 µM

###

# Tested on: 786-0 renal
# Experiment: NCI tumour cell line growth inhibition, 48 h
Endpoint Label: TGI

Study these solved cases before continuing.
Looking up `C[C@H]1C[C@H]2[C@@H]3CCC4=CC(=O)C=C[C@]4(C)C3=CC[C@]2(C)[C@@]1(O)C(=O)CO` , I found its TGI recorded as > 100 µM

Looking up `CN(C)CCCn1c2c(c3cc4c(cc3c1=O)OCO4)C(=O)c1ccccc1-2` , I found its TGI recorded as 1.96 µM

---
Looking up `O=C(O)CC12CC3CC(CC(O)(C3)C1)C2` , I found its TGI recorded as > 100 µM

Looking up Nc1nc2ncn(CC(O)CO)c2c(=O)[nH]1 (configuration not stated) , I found its TGI recorded as > 100 µM

Looking up `N#Cc1cccc(Nc2ncc(-c3ccccc3)o2)c1` , I found its TGI recorded as > 25 µM

Looking up NC(CCCCNCc1ccccc1O)C(=O)O (configuration not stated) , I found its TGI recorded as > 100 µM

Looking up CC(C)N(C(=O)C12C3C4C1C1C2C3C41C(=O)N(C(C)C)C(C)C)C(C)C (configuration not stated) , I found its TGI recorded as > 50 µM

###

# System: A549 NSCLC
# Experiment: NCI tumour cell line growth inhibition, 48 h
Endpoint Label: TGI (µM)
Numeric answer only, unit µM assumed.

Looking up `O=C1C(Sc2ccc3ccccc3c2)=C(Sc2ccc3ccccc3c2)C(=O)c2ccccc21` , I found its TGI recorded as 21.7

The record that follows has no TGI shown yet.
Looking up CC(=O)OCC(CC[CH2][Sn]([Cl])([Cl])[c]1ccccc1)OC(C)=O (centres undefined) , I found its TGI recorded as 53

###

# Tested on: MOLT-4 leukemia
# Experiment: NCI tumour cell line growth inhibition, 48 h; in the data active means GI50 below about 0.43 µM; inactive means the rest
Valid outcomes are listed here; reply with one: active, inactive

Here are 10 compounds together with their reported answers.
Ask: For `COc1ccc(/C=N\Nc2nc(SCC(C)C)nc(-c3ccc(OC)cc3)c2C#N)cc1` , what call appears in the results of this test?
Reply: inactive

Ask: For `COc1cc(-c2ncn(/C=C\c3nnco3)n2)cc(C(F)(F)F)c1` , what call appears in the results of this test?
Reply: active

Ask: For `COc1cc2c(cc1NC(=O)C(Cl)Cl)-c1ccc(NC(=O)C(Cl)Cl)cc1C2` , what call appears in the results of this test?
Reply: inactive

Ask: For `Nc1nc(-c2ccc(Cl)cc2)nc2c1sc(=S)n2-c1ccccc1` , what call appears in the results of this test?
Reply: inactive

Ask: For `C[C@@H](NC(=O)c1ccc(F)cc1)c1ccc2c(c1)CCN2C(=O)C1CCOCC1` , what call appears in the results of this test?
Reply: inactive

Ask: For `O=C1/C(=C/c2ccccc2O)N=C(c2ccccc2)N1c1cc(C(F)(F)F)ccc1Cl` , what call appears in the results of this test?
Reply: inactive

Ask: For `CN(C)CCCn1c2c(c3cc4c(cc3c1=O)OCO4)C(=O)c1ccccc1-2` , what call appears in the results of this test?
Reply: active

Ask: For `C=CC(=O)N[C@@H](/C=C/C(=O)OCC)Cc1ccc(-c2cc(Cl)cc(Cl)c2)cc1` , what call appears in the results of this test?
Reply: inactive

Ask: For `COc1ccc2c(c1)C(=O)c1c-2c(=O)n(CCCN(C)C)c2cc(OC)c(OC)cc12` , what call appears in the results of this test?
Reply: active

Ask: For COc1cc(/C=C/C(=O)O[C@H]2[C@H](O[C@@H]3O[C@@H](C)[C@H](O)[C@@H](O)[C@H]3O)[C@@H](O)[C@H](OCCc3ccc(O)c(O)c3)O[C@@H]2COC2OCC(O)(CO)C2O)ccc1O (some centres undefined) , what call appears in the results of this test?
Reply: inactive

---
Ask: For `NCc1ccc(-c2nc(-c3ccc(Cl)c(O)c3)c(-c3ccncc3)[nH]2)cc1` , what call appears in the results of this test?
Reply: inactive

Ask: For `O=C(c1ccco1)c1c(C(F)(F)F)n([O-])c2cc(F)c(F)cc2[n+]1=O` , what call appears in the results of this test?
Reply: active

Ask: For `O=S(=O)(NCCCNc1nccc(-c2c(-c3ccc(F)cc3)nc3sccn23)n1)c1ccc(F)cc1` , what call appears in the results of this test?
Reply: inactive

Ask: For `COc1ccc2nc3cc(Cl)ccc3c(N3CCN(c4ccnc(N5CCN(C)CC5)n4)CC3)c2c1` , what call appears in the results of this test?
Reply: inactive

Ask: For `O=S(=O)(NCCCNc1cc(-c2cn(-c3ccccc3)nc2-c2cccc(O)c2)ccn1)c1ccc(F)cc1` , what call appears in the results of this test?
Reply: inactive
